assay: Approximate kinetic solubility (visual, solvent aliquot addition); assay type: physicochemical; settings: nitromethane, 23 °C, organic solvent or mixture, thermodynamic from solid; read-out: Solubility (mg/mL)at RT (23° C.)
readout.label: solubility

// query What value of measured solubility is listed for O=C(NOC[C@H](O)CO)c1ccc(F)c(F)c1Nc1ccc(I)cc1F ?
// result 10 to 20 mg/mL

---

assay: Approximate kinetic solubility (visual, solvent aliquot addition); format: physicochemical; details: ethyl acetate (EtOAc), 23 °C, organic solvent or mixture, thermodynamic from solid; read-out: Solubility (mg/mL)at RT (23° C.)
readout.label: solubility

// query Sample O=C(NOC[C@H](O)CO)c1ccc(F)c(F)c1Nc1ccc(I)cc1F — what was its solubility?
// result 48 to 95 mg/mL
